TGT: Human CD79A+CD79B antigen (human) (UniProt P11912)
Sequence (P11912 33-143 limits assumed, chain 1 of 2): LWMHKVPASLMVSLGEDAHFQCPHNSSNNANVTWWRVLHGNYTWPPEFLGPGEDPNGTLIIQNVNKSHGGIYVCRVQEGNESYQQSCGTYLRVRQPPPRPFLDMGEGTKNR
Sequence (P40259 29-159 limits assumed, chain 2 of 2, further chain): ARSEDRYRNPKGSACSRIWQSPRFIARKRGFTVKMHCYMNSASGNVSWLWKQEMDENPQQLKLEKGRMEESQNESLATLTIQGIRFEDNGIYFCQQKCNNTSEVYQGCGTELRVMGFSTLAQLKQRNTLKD
ASSAY_DETAILS: ELISA on coated antigen, anti-myc detection; 2ng antibody added
One threshold, 0.06 OD450, splits the recorded OD450 nm values: lower ones are yes, equal or higher ones are no.

q: In plain terms, does anti-CD79B single-domain antibody JYB4 (VHH, Alpaca VHH from a phage library; not shown: His-tag protein at the C-terminal end) VHH: DVQLQESGGGLVQPGGSLRLSCAASGFAFSLYAMSWARQAPGKGLEWVSDIYGDDDSRRNYADSVKGRFTISRDNAKNTVYLQMTNLQPEDTALYYCGKGRDGTRWSAREYEYRGQGTQVTVSS come in under 0.06 OD450 for OD450 nm?
a: no

q: In plain terms, does anti-CD79B single-domain antibody JYB8 (VHH, not shown: small tags and cut ends) VHH: DVQLQESGGGLMQPGGSLSLTCTASISSLSIWVRAWHRQAPGKQRELVAAINSDGQTMYADSVKGRFTISRDSAKTTVSLQMDSLKPEDTAVYYCNVVTPKGQQYWGQGTQVTVSS come in under 0.06 OD450 for OD450 nm?
a: yes

q: In plain terms, does anti-CD79B single-domain antibody JYB11 (VHH, Alpaca VHH from a phage library; ELISA detected with an anti-myc antibody; a myc tag is not described; not shown: His-tag protein at the C-terminal end) VHH: DVQLQESGGGLVQPGGSLSLSCAASMSSPSLWVRAWHRQAPGKQRELVAAINSDGQTMYADSVKGRFTISRDNAKTLVSLQMDSLKPEDTAVYYCNVVTPRGQQYWGQGTQVTVSS come in under 0.06 OD450 for OD450 nm?
a: yes
